Target: UniProt P03372
Sequence (P03372 whole entry): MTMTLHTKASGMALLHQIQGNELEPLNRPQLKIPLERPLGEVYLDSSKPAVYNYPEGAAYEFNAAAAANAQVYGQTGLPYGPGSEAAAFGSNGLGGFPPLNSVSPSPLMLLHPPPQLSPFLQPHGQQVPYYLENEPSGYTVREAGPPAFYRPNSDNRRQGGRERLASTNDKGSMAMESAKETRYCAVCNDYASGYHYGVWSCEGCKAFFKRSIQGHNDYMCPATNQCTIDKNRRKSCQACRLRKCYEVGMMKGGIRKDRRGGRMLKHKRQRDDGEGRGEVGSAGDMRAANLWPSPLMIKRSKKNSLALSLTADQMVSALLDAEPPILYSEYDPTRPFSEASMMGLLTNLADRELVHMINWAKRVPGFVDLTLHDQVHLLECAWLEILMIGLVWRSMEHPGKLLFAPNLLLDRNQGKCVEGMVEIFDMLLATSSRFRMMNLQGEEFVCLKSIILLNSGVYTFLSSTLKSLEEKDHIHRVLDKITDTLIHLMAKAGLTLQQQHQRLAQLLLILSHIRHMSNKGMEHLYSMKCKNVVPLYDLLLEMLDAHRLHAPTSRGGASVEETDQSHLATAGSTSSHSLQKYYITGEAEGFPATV
Experiment: Agonist activity at ERalpha in human MCF7 cells assessed as effect on PR protein expression after 5 hrs by formaldehyde-staining based assay
Format: cell-based
Reported metric: IC50

{"Line notation": "C[C@@H]1Cc2c(ccc3[nH]ncc23)[C@@H](c2c(F)cc(/C=C/C(=O)O)cc2F)N1CC(C)(C)F", "Target": "UniProt P03372", "Reported metric": "IC50", "Test value": "> 3.16 µM"}

---

Experiment: Fraction unbound in 10% human plasma by equilibrium dialysis
Format: ADME, cell-free
Conditions: 10% plasma
Friendly reminder: fraction unbound below 0.03 is fulfilled, at or above is not fulfilled.

{"Compound": "C[C@@H]1Cc2c(ccc3[nH]ncc23)[C@@H](c2c(F)cc(/C=C/C(=O)O)cc2F)N1CC(C)(C)F", "Class assignment": "fulfilled"}
{"Compound": "COc1cc(/C=C/C(=O)O)c(F)cc1[C@@H]1c2ccc3[nH]ncc3c2C[C@@H](C)N1CC(C)(F)F", "Class assignment": "fulfilled"}
{"Compound": "CC(C)CN1CCc2c(ccc3[nH]ccc23)C1c1ccc(/C=C/C(=O)O)cc1 (stereo not drawn)", "Class assignment": "not fulfilled"}
{"Compound": "COc1cc(/C=C/C(=O)O)ccc1[C@]1(C)c2ccc3[nH]ncc3c2C[C@@H](C)N1CC(C)(C)F", "Class assignment": "not fulfilled"}
{"Compound": "COc1cc(/C=C/C(=O)O)ccc1[C@@H]1c2ccc3[nH]ncc3c2C[C@@H](C)N1CC(C)(F)F", "Class assignment": "fulfilled"}
{"Compound": "CC(C)CN1[C@H](c2ccc(/C=C/C(=O)O)cc2)c2ccc3[nH]ncc3c2CC1(C)C", "Class assignment": "not fulfilled"}
{"Compound": "CC(C)CN1CCc2c(ccc3[nH]ncc23)[C@H]1c1ccc(/C=C/C(=O)O)cc1", "Class assignment": "not fulfilled"}
{"Compound": "COc1cc(/C=C/C(=O)O)ccc1[C@@H]1c2ccc3[nH]ncc3c2C[C@@H](C)N1CC(C)(C)F", "Class assignment": "fulfilled"}

// provenance: ChEMBL document CHEMBL4368914
